# experiment: Example 4: dose response of FKBP constructs 160-255, Ec50, Ec90 and fold change (raw and normalized to mCherry)
# Type: cell-based
# recorded_conditions: fold change during initial analysis
measurement_kind: FC (fold change)

molecule	measurement_kind	reported_result
FKBP-244: FKBP13 DRD-AcGFP construct of Table 10 (protein, Description of sequence: Construct Name: FKBP-244; Mutation(s): Q72R Q84E A117W V85R DRD P118S M54A) HCPIKSRKGDVLHAHYTGKLEDGTEFDSSLPRNQPFVFSLGTGERIKGWDQGLLGMCEGEKRKLVIPSELGYGERGWSPKIPGGATLVFEVELLKIER	FC (fold change)	51.2
FKBP-161 (protein, Description of sequence: Construct Name: FKBP-161; Mutation(s): Q72R Q84E A117W DRD M54S V85R) HCPIKSRKGDVLHSHYTGKLEDGTEFDSSLPRNQPFVFSLGTGERIKGWDQGLLGMCEGEKRKLVIPSELGYGERGWPPKIPGGATLVFEVELLKIER	FC (fold change)	32.3
FKBP-197: FKBP13 DRD-AcGFP construct of Table 10 (protein, Description of sequence: Construct Name: FKBP-197; Mutation(s): Q72R Q84E A117W V85R DRD E130R) HCPIKSRKGDVLHMHYTGKLEDGTEFDSSLPRNQPFVFSLGTGERIKGWDQGLLGMCEGEKRKLVIPSELGYGERGWPPKIPGGATLVFRVELLKIER	FC (fold change)	101.1
